target: Gal4 DNA binding domain fused to the LBD of LXRα in HEK293 cells (Homo sapiens (Human)); assay: LXR luciferase transcriptional reporter gene assay, agonist mode, LXRα; type: cell-based
Sequence (Q13133 209-447): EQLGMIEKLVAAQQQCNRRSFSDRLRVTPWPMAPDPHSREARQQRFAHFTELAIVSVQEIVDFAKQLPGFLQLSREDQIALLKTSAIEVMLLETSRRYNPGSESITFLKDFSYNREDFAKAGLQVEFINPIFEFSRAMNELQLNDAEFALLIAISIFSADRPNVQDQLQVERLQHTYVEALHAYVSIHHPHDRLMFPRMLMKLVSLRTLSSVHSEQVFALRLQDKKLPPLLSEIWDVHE
Quick reference: Cell LXRα efficacy of the listed items.

Entry `Cc1nnc(-c2ccc(N3CCN(c4ncc(CO)c(C(F)(F)F)n4)[C@H](C(C)C)C3)cc2S(C)(=O)=O)s1` has what Cell LXRα efficacy?
3508 (31) %

For CS(=O)(=O)c1cccc(N2CCN(Cc3ccc(C(F)(F)F)nc3)[C@@H](c3ccccc3Cl)C2)c1 (single isomer, unassigned) , what is its reported Cell LXRα efficacy?
1244 (42) %

So what's the measured Cell LXRα efficacy for this one? CC(O)c1cnc(N2CCN(c3ccc(F)c(S(C)(=O)=O)c3)C[C@H]2c2ccc(F)cc2)nc1C(F)(F)F (stereo partly shown)
4884 (19) %

What Cell LXRα efficacy value was documented for this molecule, `CC(C)[C@@H]1CN(c2ccc(CO)c(S(C)(=O)=O)c2)CCN1c1ncc(C(N)=O)c(C(F)(F)F)n1` ?
1127 (18) %
